# Lookup of reported IC50 keyed by entry
target-under-test: T1, biotinylated PD1-ECD-AviHis (human, UniProt Q15116 25-170, biotinylated, site not stated)
T1 construct: also called huPD1; hu PD1
test-protocol: ELISA, inhibition of PD-L2 Fc binding to coated PD1-ECD-AviHis
Hi! Could you send only the number? It should be in µg/mL, unit omitted.

>  <binder>
PD1-0098 (antibody, V domains shown) VH: DVQLQESGPGLVKPSQSLSLTCTVTGYSITSDYAWNWIRQFPGDKLEWLGYITYSGFTNYNPSLKSRISISRDTSKNQFFLQLNSVATEDTATYYCARWHGSAPWYFDYWGRGTTLTVSS VL: DVLMTQTPLSLPVSLGDQASISCRSSQNIVHSDGNTYLEWYLQKPGQSPNLLIYKVSRRFSGVPDRFSGSGSGTDFTLKISRVEAEDLGVYYCFQGSHFPLTFGAGTKLELK

>  <measured-metric>
IC50

>  <unit-label>
µg/mL

>  <quantitative-result>
0.045

$$$$

Q) Requested field: IC50. Item: PD1-0073 (antibody, V domains shown) VH: EVKLVESGGGLVKPGGSLKLSCAASGFTFSNYGMSWIRQTPEKGLEWVATISGGGRDTYYPDSVKGRFTISRDNVKNNLYLQMSSLRSEDTAFYYCASYYYGIDYWGQGTSVTVSS VL: DIVMTQPHKFMSTSVGDRVRITCKASQDVTTAVAWYQQKPGQSPKLLIYWASTRHTGVPDRFTGSGSGTEFTLTISSVQAEDLALYYCQQHYSIPWTFGGGTKLEIK
A) 0.065

Q) Requested field: IC50. Item: PD1-0078 (antibody, V domains shown) VH: QVQLQQPGAELVKPGASVKMSCKASGYTFTSTWMHWVKQRPGQGLEWIGAIDPSDSYTTYNQKFKGKATLTVDTSSTTAYMQLSSLTSEDSAVYYCTRSPFDYWGQGTTLTVSS VL: DIVMTQSHKFMSTSVGDRVSITCKASQDVSTAVAWYQQKPGQSPKLLIYSASYRYTGVPDRFTGSGSGTDFTFAISSVQAEDLAVYYCQQHYSHPFTFGSGTKLEIK
A) 0.086
